experiment: Stability test (appearance by naked eye, purity by liquid chromatography after storage); format: physicochemical; settings: Condition 2: 60° C. for 28 days
assay_readout: Purity (%)

{"columns": ["compound", "experimental_result"],
 "data": [
  ["C[C@H](Cc1cc2c(c(C(N)=O)c1)N(CCCO)CC2)NCCOc1ccccc1OCC(F)(F)F [γ, KMD-3213]", 99.84],
  ["C[C@H](Cc1cc2c(c(C(N)=O)c1)N(CCCO)CC2)NCCOc1ccccc1OCC(F)(F)F [β, KMD-3213]", 99.57],
  ["C[C@H](Cc1cc2c(c(C(N)=O)c1)N(CCCO)CC2)NCCOc1ccccc1OCC(F)(F)F [amorphous, KMD-3213]", 99.56],
  ["C[C@H](Cc1cc2c(c(C(N)=O)c1)N(CCCO)CC2)NCCOc1ccccc1OCC(F)(F)F [α, KMD-3213]", 99.84]
]}

====

test: Stability test (appearance by naked eye, purity by liquid chromatography after storage); type: physicochemical; conditions: Condition 1: 40° C. for 28 days
assay_readout: Purity (%)

{"columns": ["compound", "Purity (%)"],
 "data": [
  ["C[C@H](Cc1cc2c(c(C(N)=O)c1)N(CCCO)CC2)NCCOc1ccccc1OCC(F)(F)F [β, KMD-3213]", 99.73],
  ["C[C@H](Cc1cc2c(c(C(N)=O)c1)N(CCCO)CC2)NCCOc1ccccc1OCC(F)(F)F [γ, KMD-3213]", 99.85],
  ["C[C@H](Cc1cc2c(c(C(N)=O)c1)N(CCCO)CC2)NCCOc1ccccc1OCC(F)(F)F [amorphous, KMD-3213]", 99.66],
  ["C[C@H](Cc1cc2c(c(C(N)=O)c1)N(CCCO)CC2)NCCOc1ccccc1OCC(F)(F)F [α, KMD-3213]", 99.84]
]}

====

assay: Stability test (appearance by naked eye, purity by liquid chromatography after storage); type: physicochemical; settings: Condition 4: 40° C. and relative humidity 75% for 28 days
assay_readout: Purity (%)

{"columns": ["compound", "Purity (%)"],
 "data": [
  ["C[C@H](Cc1cc2c(c(C(N)=O)c1)N(CCCO)CC2)NCCOc1ccccc1OCC(F)(F)F [γ, KMD-3213]", 99.85],
  ["C[C@H](Cc1cc2c(c(C(N)=O)c1)N(CCCO)CC2)NCCOc1ccccc1OCC(F)(F)F [α, KMD-3213]", 99.85],
  ["C[C@H](Cc1cc2c(c(C(N)=O)c1)N(CCCO)CC2)NCCOc1ccccc1OCC(F)(F)F [β, KMD-3213]", 99.69],
  ["C[C@H](Cc1cc2c(c(C(N)=O)c1)N(CCCO)CC2)NCCOc1ccccc1OCC(F)(F)F [amorphous, KMD-3213]", 99.71]
]}

====

assay: Stability test (appearance by naked eye, purity by liquid chromatography after storage); assay type: physicochemical; conditions: Initial

{"columns": ["compound", "Appearance"],
 "data": [
  ["C[C@H](Cc1cc2c(c(C(N)=O)c1)N(CCCO)CC2)NCCOc1ccccc1OCC(F)(F)F [α, KMD-3213]", "White powder"],
  ["C[C@H](Cc1cc2c(c(C(N)=O)c1)N(CCCO)CC2)NCCOc1ccccc1OCC(F)(F)F [β, KMD-3213]", "Pale yellow powder"],
  ["C[C@H](Cc1cc2c(c(C(N)=O)c1)N(CCCO)CC2)NCCOc1ccccc1OCC(F)(F)F [γ, KMD-3213]", "Pale yellow powder"],
  ["C[C@H](Cc1cc2c(c(C(N)=O)c1)N(CCCO)CC2)NCCOc1ccccc1OCC(F)(F)F [amorphous, KMD-3213]", "White powder"]
]}
